# Measured Target: P-selectin-IgG fusion protein (Homo sapiens)
# Construct: the lectin-like domain, the EGF repeat domain and six (E-selectin) and two (P-selectin) of the complement regulatory-like domains; culture supernatant; genetic constructs from B. Seed, Massachusetts General Hospital)
# Sequence (P16109 with tags, fused parts or gaps limits assumed): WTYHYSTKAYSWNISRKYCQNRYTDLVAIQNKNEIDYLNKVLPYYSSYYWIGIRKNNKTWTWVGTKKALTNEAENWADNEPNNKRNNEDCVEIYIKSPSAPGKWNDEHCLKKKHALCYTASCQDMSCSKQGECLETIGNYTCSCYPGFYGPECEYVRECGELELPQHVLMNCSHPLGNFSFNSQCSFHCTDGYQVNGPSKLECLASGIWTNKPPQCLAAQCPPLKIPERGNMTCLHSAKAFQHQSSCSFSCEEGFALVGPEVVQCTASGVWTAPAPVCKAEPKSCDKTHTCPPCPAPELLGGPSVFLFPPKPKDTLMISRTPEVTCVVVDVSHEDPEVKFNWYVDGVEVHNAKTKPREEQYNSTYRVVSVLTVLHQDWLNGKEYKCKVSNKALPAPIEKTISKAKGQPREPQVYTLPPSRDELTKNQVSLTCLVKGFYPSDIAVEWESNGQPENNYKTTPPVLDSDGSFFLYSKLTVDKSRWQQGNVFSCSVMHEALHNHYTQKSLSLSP
# Assay Notes: Inhibition of HL60 cell adhesion to recombinant P-selectin-IgG fusion protein
# Condition Summary: concentration to block adhesion of 50% of HL60 cells compared with negative control
IC50 values, listed per item
Return type: number; implicit unit µM.

// below: answered compounds
Record CC(=O)NC1C(O)CC(OC2C(O)C(CO)OC(OC3C(CO)OC(OCCCCCCN)C(NC(C)=O)C3OC3OC(C)C(O)C(O)C3O)C2O)(C(=O)O)OC1C(O)C(O)CO (stereo not shown) , field IC50: 2000

Documented IC50 of CC(=O)NC1C(OCCCCCCN)OC(CO)C(OC2OC(CO)C(O)C(OC3(C(=O)O)CC(O)C(N)C(C(O)C(O)CO)O3)C2O)C1OC1OC(C)C(O)C(O)C1O (stereo not shown) : 1000

Consider CC(=O)NC1C(OCCCCCCN)OC(CO)C(OC2OC(CO)C(O)C(OC3(C(=O)O)CC(O)CC(C(O)C(O)CO)O3)C2O)C1OC1OC(C)C(O)C(O)C1O (stereo not shown) . Its measured IC50 is 700

Here's the next entry for you.
Record CC1OC(OC2C(N)C(OCCCCCCN)OC(CO)C2OC2OC(CO)C(O)C(OC3(C(=O)O)CC(O)C(N)C(C(O)C(O)CO)O3)C2O)C(O)C(O)C1O (stereo not shown) . Reported IC50: 160
